Values from patent US20230357425A1

- system.tested: T1, Cynomolgus monkey CD73 on HEK293-cynoCD73 stable cell line (cynomolgus monkey)
- T1 construct: whole, on cells
- procedure.text: flow cytometry on HEK293-cynoCD73 stable cells
EC50 reference
Write the number in pM without appending the unit.

Use these answered entries as a reference point.
[
  {
    "binder": "PR000506 (antibody, human IgG1, kappa, L234A L235A, V domains shown, Recombinant antibody from hybridoma clone 38H6; also called 38H6E5 (clone name)) VH: QVQLVESGGGVAQPGRSLSLSCAASGFTFSDYGMHWVRQAPGKGLEWVALIWYDGSFEYYADSVKGRFSISRDNSKNTLYLQMNSLRAEDTAVYYCVRDGQWGSRLDYWGQGTLVTVSS VL: KIVMTQSPATLSLSPGERATLSCRASQSVSRYLAWYQQKPGQAPRLLIYDASNRATGIPARFSGSGSGTDFTLTISSLEPEDFAVYYCQQRSNWIFTFGPGTKVDIKR",
    "obs.value": 322
  },
  {
    "binder": "Tab1 (antibody, human IgG1, lambda, V domains shown, also called PR002078; MEDI9447(TAB1)) VH: EVQLLESGGGLVQPGGSLRLSCAASGFTFSSYAYSWVRQAPGKGLEWVSAISGSGGRTYYADSVKGRFTISRDNSKNTLYLQMNSLRAEDTAVYYCARLGYGRVDEWGRGTLVTVSS VL: QSVLTQPPSASGTPGQRVTISCSGSLSNIGRNPVNWYQQLPGTAPKLLIYLDNLRLSGVPDRFSGSKSGTSASLAISGLQSEDEADYYCATWDDSHPGWTFGGGTKLTVLG",
    "obs.value": 623
  },
  {
    "binder": "PR000849 (antibody, human IgG1, kappa, L234A L235A, V domains shown, PTM-removal variant of PR000851 (heavy chain G55A, D99E)) VH: QVQLVESGGGVAQPGRSLSLSCAASGFTFSDYGMHWVRQAPGKGLEWVALIWYDASFEYYADSVKGRFSISRDNSKNTLYLQMNSLRAEDTAVYYCVREGQWGSRLDYWGQGTLVTVSS VL: EIVLTQSPATLSLSPGERATLSCRASQSVSRYLAWYQQKPGQAPRLLIYDASNRATGIPARFSGSGSGTDFTLTISSLEPEDFAVYYCQQRSNWIFTFGPGTKVDIKR",
    "obs.value": 515
  }
]

// below: EC50 requested for another binder
Task: Find the recorded EC50 belonging to PR000844 (antibody, human IgG1, kappa, L234A L235A, V domains shown, PTM-removal variant of PR000506 (heavy chain D54E, G100A)) VH: QVQLVESGGGVAQPGRSLSLSCAASGFTFSDYGMHWVRQAPGKGLEWVALIWYEGSFEYYADSVKGRFSISRDNSKNTLYLQMNSLRAEDTAVYYCVRDAQWGSRLDYWGQGTLVTVSS VL: KIVMTQSPATLSLSPGERATLSCRASQSVSRYLAWYQQKPGQAPRLLIYDASNRATGIPARFSGSGSGTDFTLTISSLEPEDFAVYYCQQRSNWIFTFGPGTKVDIKR and report it.
Output: 475
